Would you mind telling me the reported cytotoxicity at 10 µM of each entry?
Assay Remarks: Toxicity liver stage against HepG2, at 10uM
Assay type: cell-based
Parameters: test concentration 10 uM, cell line HepG2-A16-CD81EGFP
Study Conditions: human, HepG2-A16-CD81EGFP cells; read-out: INHIBITION
Give bare numbers, in %.

{"Molecule": "O=C([C@@H]1CCO[C@@H]2CCN(CC3CCOCC3)C[C@H]21)N1CCCC1", "Unit Info": "%", "Test Value": -114}

Working through the 2 molecules below one at a time, give cytotoxicity at 10 µM for each.
1. Cn1cc(C(C)(O)CNc2ccc(Cl)c(C#N)n2)cn1 (centres undefined)
2. COc1cc(Br)c(CNC(C)c2nnc3n2CCC3)cc1OC (centres undefined)

**A:**
[3.97, -43.2]

Working through the 3 molecules below one at a time, give cytotoxicity at 10 µM for each.
1. CN1C(=O)C2(CCN(CC3CC3)CC2)c2ccccc21
2. c1csc(C2(NCc3csc(C4CC4)n3)CCCC2)n1
3. CC(=O)Nc1nc(C2CCN(CC(N)=O)CC2)cs1

**A:**
[3.16, -3.75, -2.76]

Working through the 3 molecules below one at a time, give cytotoxicity at 10 µM for each.
1. COC(=O)[C@@H]1CN(C(=O)c2cscn2)C[C@H]1c1ccc(OC)cc1
2. CC(C)(C)c1coc([C@@H]2COCCN2CC2CC2)n1
3. CCn1ncc2c1C(COCC1CC1)CN(S(=O)(=O)N(C)C)C2 (centres undefined)

**A:**
-31.6
-10.1
-10.4

###

Assay Remarks: Toxicity liver stage against HepG2, at 10uM
Format: cell-based
Parameters: test concentration 10 uM, cell line HepG2-A16-CD81EGFP
Study Conditions: human, HepG2-A16-CD81EGFP cells; read-out: INHIBITION
Measure Name: cytotoxicity at 10 µM (%)
Give bare numbers, in %.

{"Compound": "CCc1ccc(-n2nnc(C(=O)O)c2-c2ccccn2)cc1", "cytotoxicity at 10 µM [%]": -1.92}
{"Compound": "CCc1ccc(CN(C)Cc2nc(COc3ccccc3)no2)nc1", "cytotoxicity at 10 µM [%]": 6.58}

**Q:** So what does the record say about cytotoxicity at 10 µM for O=C(NCCc1c[nH]cn1)C1CCCN(C2CCOCC2)C1 (stereo not drawn) ?
**A:** 1.58

###

Assay Remarks: Toxicity liver stage against HepG2, at 10uM
Type: cell-based
Set-up: test concentration 10 uM, cell line HepG2-A16-CD81EGFP
Study Conditions: human, HepG2-A16-CD81EGFP cells; read-out: INHIBITION
Would you mind telling me the reported cytotoxicity at 10 µM of each entry?
Numbers only, in %.

Check out these entries, answers already filled in.
{"Compound": "Cc1nocc1C(=O)N1CCCC2(CCN(c3ccsc3)C2=O)C1 (stereo not drawn)", "cytotoxicity at 10 µM [%]": -129}
{"Compound": "Cc1cnn(CCNCc2ccc(C#N)cc2F)c1", "cytotoxicity at 10 µM [%]": -2.73}

Switching to the query record.
**Q:** So what does the record say about cytotoxicity at 10 µM for CCc1nnc(CNCC2CCCN2c2cccnn2)o1 (stereo not drawn) ?
**A:** -10.7

###

Would you mind telling me the reported cytotoxicity at 10 µM of each entry?
Assay Remarks: Toxicity liver stage against HepG2, at 10uM
Format: cell-based
Design: test concentration 10 uM, cell line HepG2-A16-CD81EGFP
Study Conditions: human, HepG2-A16-CD81EGFP cells; read-out: INHIBITION
Answers are plain numbers, in %.

Check out these entries, answers already filled in.
{"Compound": "CCn1cc(C(=O)N2CCCC(c3nccs3)C2)cn1 (stereo not drawn)", "Unit Info": "%", "cytotoxicity at 10 µM": -4.19}
{"Compound": "COCCOCC(=O)N1C[C@@H]2CC[C@H](Oc3cccc(F)c3)[C@@H]2C1", "Unit Info": "%", "cytotoxicity at 10 µM": -26}

Switching to the query record.
**Q:** So what does the record say about cytotoxicity at 10 µM for FC(F)(F)c1cccnc1N1CCC(OC2CCOCC2)CC1 ?
**A:** -8.44

###

Assay Remarks: Toxicity liver stage against HepG2, at 10uM
Assay type: cell-based
Design: test concentration 10 uM, cell line HepG2-A16-CD81EGFP
Study Conditions: human, HepG2-A16-CD81EGFP cells; read-out: INHIBITION
Would you mind telling me the reported cytotoxicity at 10 µM of each entry?
Answers are plain numbers, in %.

Working through the 6 compounds below one at a time, give cytotoxicity at 10 µM for each.
1. O=C(c1ccco1)N1CCCC2(C1)CN(c1nncs1)CCO2 (stereo not drawn)
2. O=c1c2cc3c(cc2nnn1Cc1ccccc1)OCCO3
3. CN(CCN1CCOC1=O)CC(=O)Nc1ccc(Cl)c(C(F)(F)F)c1
4. Fc1cccc(Cl)c1CN1CCn2c(nnc2C2CC2)C1
5. Cc1ccc(CNC(=O)C2CCNC(=O)C2)c(OCCC(C)C)c1 (stereo not drawn)
6. CCOCc1nc2c(c(N(C)Cc3snnc3C)n1)CCNCC2

**A:**
[-99.3, 7.38, -46.5, 8.7, 20.4, 10.7]

Working through the 3 compounds below one at a time, give cytotoxicity at 10 µM for each.
1. CCc1nc(CCNC(=O)C2CC2)sc1C
2. COc1cccc(CN(Cc2ccco2)Cc2[nH]cnc2C)c1
3. O=C(O)[C@@H]1CN(C(=O)c2ccc(F)c(F)c2)C[C@H]1c1cccc(F)c1

**A:**
1. -14.1
2. 3.77
3. -113

###

Assay Remarks: Toxicity liver stage against HepG2, at 10uM
Type: cell-based
Design: test concentration 10 uM, cell line HepG2-A16-CD81EGFP
Study Conditions: human, HepG2-A16-CD81EGFP cells; read-out: INHIBITION
Measure Name: cytotoxicity at 10 µM (%)
One number for each entry, in %.

Check out these entries, answers already filled in.
{"Compound": "CCn1c(C2CCCN(Cc3nccn3CCOC)C2)nn(C)c1=O (stereo unspecified)", "Unit Info": "%", "Test Value": 7.3}
{"Compound": "CC(NC(=O)NCCCn1cncn1)c1ccccc1F (stereo unspecified)", "Unit Info": "%", "Test Value": -13.3}
{"Compound": "Fc1cnc(N2CC3(CCN(CC4CC4)C3)C2)nc1", "Unit Info": "%", "Test Value": -2.73}
{"Compound": "CC(C)N1CCOC[C@H]1c1nc(-c2ccncc2)c[nH]1", "Unit Info": "%", "Test Value": 6.73}
{"Compound": "Cc1cc(C(=O)N2CC[C@](C)(O)[C@H](C)C2)c(C)n1C", "Unit Info": "%", "Test Value": -1.43}

**Q:** So what does the record say about cytotoxicity at 10 µM for Cc1cccc(CN2CCCC3(CCN(C4CCSCC4)C3)C2=O)c1 (stereo unspecified) ?
**A:** 2.55

###

Assay Remarks: Toxicity liver stage against HepG2, at 10uM
Format: cell-based
Set-up: test concentration 10 uM, cell line HepG2-A16-CD81EGFP
Study Conditions: human, HepG2-A16-CD81EGFP cells; read-out: INHIBITION
Would you mind telling me the reported cytotoxicity at 10 µM of each entry?
Give bare numbers, in %.

{"Molecule": "Cc1nc(C)n(CCC(=O)NCC2CCCOC2)n1 (configuration not stated)", "Unit Info": "%", "cytotoxicity at 10 µM": 4.3}
{"Molecule": "CCc1nc(CN2CCCC(NCc3ncc(C(C)(C)C)o3)C2)no1 (configuration not stated)", "Unit Info": "%", "cytotoxicity at 10 µM": 1.97}
{"Molecule": "COc1nsc2nc(C3CCCN3C(C)=O)ccc12 (configuration not stated)", "Unit Info": "%", "cytotoxicity at 10 µM": 6.78}
{"Molecule": "CCN(CC(=O)Nc1cc(Cl)ccc1C)C(=O)c1ccncc1", "Unit Info": "%", "cytotoxicity at 10 µM": -1.73}
{"Molecule": "O=C(O)CN1CCc2onc(C(c3ccccc3)c3ccccc3)c2C1", "Unit Info": "%", "cytotoxicity at 10 µM": -0.849}
{"Molecule": "CCS(=O)(=O)N1CCc2c(cccc2NC(=O)NCCO)C1", "Unit Info": "%", "cytotoxicity at 10 µM": -7.47}

Working through the 6 molecules below one at a time, give cytotoxicity at 10 µM for each.
1. CCn1ccnc1CN1CCCN(C(=O)c2cc(C)nn2CC)CC1
2. COCCC(=O)N1CCC2(CCCN2Cc2cccc(Cl)c2)C1 (configuration not stated)
3. Cc1nc2c(c(C)c1CC(=O)Nc1ccc(Cl)cc1)c(=O)[nH]n2C
4. CCCNC(=O)COc1cc(C)c2c(C)nn(-c3ccccc3)c2n1
5. Cc1nn(C)c(C)c1C(C)NC(=O)Nc1cccnc1N1CCCC1 (configuration not stated)
6. CC(=O)N1CCC(c2nccnc2-c2ccc(C(=O)O)cc2)CC1

**A:**
-5.89
10.6
-2.85
-0.295
-6.88
11.1

Working through the 5 molecules below one at a time, give cytotoxicity at 10 µM for each.
1. Cc1c[nH]nc1C1CCN(C(=O)C2CCOCC2)C1 (configuration not stated)
2. COc1cccc(CN2CCN(c3noc(C(C)C)n3)CC2)c1F
3. CC(=O)N1CCCC1c1nc(C)cc(-c2ccc(F)cc2)n1 (configuration not stated)
4. COc1cccc(CNC(=O)c2cc(C)nc(N3CCCCC3)n2)c1
5. NCC1CN(C(=O)Cn2ncc(N3CCCCC3)cc2=O)CCO1 (configuration not stated)

**A:**
1: 4.71; 2: 2.97; 3: 9.88; 4: 20; 5: -8.27

Values compiled from ChEMBL document CHEMBL4513216.
